Values from ChEMBL document CHEMBL4028864

- Experiment: Cytotoxicity against human AC10 cells assessed as cell viability at 100 uM after 24 hrs by CellTiter-Glo assay relative to control
- Format: cell-based
- Measurement setup: read-out: Activity
Endpoint label: viability at 24 h, 100 µM (%)
Numbers only; they are read as %.

Please look up its viability at 24 h, 100 µM: O=C(CCCCCCn1cc(-c2ncnc3[nH]ccc23)cn1)NO
56

====

- Experiment: Terminal half life in Wistar rat at 1 mg/kg, iv by LC-MS/MS analysis
- Assay type: ADME, organism-based
- Measurement setup: in vivo, read-out: beta t1/2 (converted)
Endpoint label: half-life (min)
Reply with just the number (in min).

Endpoint output: half-life of O=C(CCCCCCn1cc(-c2ncnc3[nH]ccc23)cn1)NO . Value?
21

====

- Experiment: Half life in rat liver microsome preincubated for 5 mins followed by NADPH addition by LC-MS/MS analysis
- Assay type: ADME
- Measurement setup: liver microsomes
Endpoint label: half-life

Find the recorded half-life belonging to O=C(CCCCCCn1cc(-c2ncnc3[nH]ccc23)cn1)NO and report it.
> 3.33 h

====

Each entry below carries its recorded pIC50.
- Test system: Histone deacetylase 3/Nuclear receptor corepressor 2 (HDAC3/NCoR2) (Homo sapiens)
- Sequence (O15379 whole entry, the tested form may be a part): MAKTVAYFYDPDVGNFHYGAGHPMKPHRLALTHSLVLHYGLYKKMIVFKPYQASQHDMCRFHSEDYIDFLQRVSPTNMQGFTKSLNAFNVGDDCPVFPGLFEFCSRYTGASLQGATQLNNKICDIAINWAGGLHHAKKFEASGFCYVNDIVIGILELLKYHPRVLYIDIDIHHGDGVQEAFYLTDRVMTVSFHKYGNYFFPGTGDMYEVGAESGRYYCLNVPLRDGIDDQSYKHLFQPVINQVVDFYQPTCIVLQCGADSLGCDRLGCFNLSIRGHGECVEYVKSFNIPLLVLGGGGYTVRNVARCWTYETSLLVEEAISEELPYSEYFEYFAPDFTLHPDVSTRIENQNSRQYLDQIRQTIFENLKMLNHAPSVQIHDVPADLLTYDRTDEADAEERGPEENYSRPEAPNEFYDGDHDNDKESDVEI
- Sequence (Q9Y618 whole entry, further chain, the tested form may be a part): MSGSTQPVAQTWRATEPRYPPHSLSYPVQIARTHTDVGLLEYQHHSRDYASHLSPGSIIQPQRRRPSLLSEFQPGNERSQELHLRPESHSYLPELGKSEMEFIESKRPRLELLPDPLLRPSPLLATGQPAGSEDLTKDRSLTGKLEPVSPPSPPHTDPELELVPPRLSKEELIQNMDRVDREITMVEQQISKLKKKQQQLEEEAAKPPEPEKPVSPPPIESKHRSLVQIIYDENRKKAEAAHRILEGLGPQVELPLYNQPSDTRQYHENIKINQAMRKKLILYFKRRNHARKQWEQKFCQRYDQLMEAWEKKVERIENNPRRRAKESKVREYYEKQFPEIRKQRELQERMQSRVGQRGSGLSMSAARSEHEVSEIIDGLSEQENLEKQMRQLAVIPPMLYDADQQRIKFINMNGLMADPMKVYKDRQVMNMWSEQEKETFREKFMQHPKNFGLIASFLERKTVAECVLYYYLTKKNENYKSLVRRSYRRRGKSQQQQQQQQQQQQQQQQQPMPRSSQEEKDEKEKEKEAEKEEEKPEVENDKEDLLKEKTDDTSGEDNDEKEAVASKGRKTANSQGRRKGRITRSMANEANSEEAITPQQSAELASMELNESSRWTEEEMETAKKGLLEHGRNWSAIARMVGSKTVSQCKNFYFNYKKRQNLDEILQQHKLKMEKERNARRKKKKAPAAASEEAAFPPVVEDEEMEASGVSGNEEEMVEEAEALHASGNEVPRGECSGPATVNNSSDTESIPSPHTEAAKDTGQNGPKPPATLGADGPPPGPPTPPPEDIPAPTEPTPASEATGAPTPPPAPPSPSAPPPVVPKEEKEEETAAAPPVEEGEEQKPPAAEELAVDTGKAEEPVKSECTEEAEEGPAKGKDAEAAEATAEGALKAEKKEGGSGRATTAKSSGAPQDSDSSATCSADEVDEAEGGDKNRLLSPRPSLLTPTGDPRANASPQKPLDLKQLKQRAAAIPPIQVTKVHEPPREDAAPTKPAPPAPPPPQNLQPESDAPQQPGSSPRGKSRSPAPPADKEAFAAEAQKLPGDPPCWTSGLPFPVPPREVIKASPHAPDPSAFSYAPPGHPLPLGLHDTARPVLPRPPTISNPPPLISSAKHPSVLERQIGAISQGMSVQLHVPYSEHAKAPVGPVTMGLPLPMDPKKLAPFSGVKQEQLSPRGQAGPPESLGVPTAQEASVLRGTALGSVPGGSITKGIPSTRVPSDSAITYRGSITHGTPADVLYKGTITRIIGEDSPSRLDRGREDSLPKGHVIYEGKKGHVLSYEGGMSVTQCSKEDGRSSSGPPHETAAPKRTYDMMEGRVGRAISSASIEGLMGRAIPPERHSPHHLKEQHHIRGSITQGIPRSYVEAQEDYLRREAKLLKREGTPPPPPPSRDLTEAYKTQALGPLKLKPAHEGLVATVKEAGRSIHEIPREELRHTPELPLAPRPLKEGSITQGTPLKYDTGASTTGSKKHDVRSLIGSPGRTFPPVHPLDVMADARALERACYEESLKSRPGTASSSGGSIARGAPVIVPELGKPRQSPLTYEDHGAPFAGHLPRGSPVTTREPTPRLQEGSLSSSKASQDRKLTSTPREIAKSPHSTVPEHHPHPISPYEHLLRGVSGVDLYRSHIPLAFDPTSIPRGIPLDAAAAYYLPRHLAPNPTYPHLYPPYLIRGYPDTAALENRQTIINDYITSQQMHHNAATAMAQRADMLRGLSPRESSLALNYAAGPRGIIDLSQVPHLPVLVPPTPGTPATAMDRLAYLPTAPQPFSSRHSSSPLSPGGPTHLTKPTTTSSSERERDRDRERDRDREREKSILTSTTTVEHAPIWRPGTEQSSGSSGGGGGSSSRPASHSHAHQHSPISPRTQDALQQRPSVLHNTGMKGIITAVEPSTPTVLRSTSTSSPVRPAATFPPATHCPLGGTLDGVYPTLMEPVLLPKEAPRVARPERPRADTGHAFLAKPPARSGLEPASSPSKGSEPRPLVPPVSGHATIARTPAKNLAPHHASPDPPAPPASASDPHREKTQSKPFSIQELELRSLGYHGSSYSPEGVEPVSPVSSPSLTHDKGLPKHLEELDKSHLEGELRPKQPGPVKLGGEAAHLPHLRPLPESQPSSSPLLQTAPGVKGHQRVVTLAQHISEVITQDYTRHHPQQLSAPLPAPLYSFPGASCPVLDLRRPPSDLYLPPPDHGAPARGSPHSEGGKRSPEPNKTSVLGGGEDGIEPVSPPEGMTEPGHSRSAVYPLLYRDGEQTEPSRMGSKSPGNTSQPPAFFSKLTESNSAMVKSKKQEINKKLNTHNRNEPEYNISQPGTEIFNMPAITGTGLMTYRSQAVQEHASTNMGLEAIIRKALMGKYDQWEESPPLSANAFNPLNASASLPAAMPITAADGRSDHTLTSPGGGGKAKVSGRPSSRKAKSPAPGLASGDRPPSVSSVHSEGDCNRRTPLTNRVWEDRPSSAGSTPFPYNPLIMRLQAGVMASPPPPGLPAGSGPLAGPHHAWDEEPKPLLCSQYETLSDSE
- Experiment: Inhibition of human recombinant HDAC3 (1 to 428 residues)/N-terminal GST-tagged NCOR2 (395 to 489 residues) expressed in Baculovirus infected insect cells in presence of ATP
// returns pIC50 (minus log10 of molar concentration), number only

CC(CCCCCC(=O)NO)n1cc(-c2ncnc3[nH]ccc23)cn1 (configuration not stated) | 7.62

// next entry
Kindly state the measured pIC50 obtained for O=C(CCCCCCn1cc(-c2ncnc3[nH]ccc23)cn1)NO with Histone deacetylase 3/Nuclear receptor corepressor 2 (HDAC3/NCoR2) (Homo sapiens).
8.41

====

Protein deacetylase HDAC6 (Homo sapiens, UniProt Q9UBN7): reported pIC50 for various compounds.
Sequence (Q9UBN7 whole entry): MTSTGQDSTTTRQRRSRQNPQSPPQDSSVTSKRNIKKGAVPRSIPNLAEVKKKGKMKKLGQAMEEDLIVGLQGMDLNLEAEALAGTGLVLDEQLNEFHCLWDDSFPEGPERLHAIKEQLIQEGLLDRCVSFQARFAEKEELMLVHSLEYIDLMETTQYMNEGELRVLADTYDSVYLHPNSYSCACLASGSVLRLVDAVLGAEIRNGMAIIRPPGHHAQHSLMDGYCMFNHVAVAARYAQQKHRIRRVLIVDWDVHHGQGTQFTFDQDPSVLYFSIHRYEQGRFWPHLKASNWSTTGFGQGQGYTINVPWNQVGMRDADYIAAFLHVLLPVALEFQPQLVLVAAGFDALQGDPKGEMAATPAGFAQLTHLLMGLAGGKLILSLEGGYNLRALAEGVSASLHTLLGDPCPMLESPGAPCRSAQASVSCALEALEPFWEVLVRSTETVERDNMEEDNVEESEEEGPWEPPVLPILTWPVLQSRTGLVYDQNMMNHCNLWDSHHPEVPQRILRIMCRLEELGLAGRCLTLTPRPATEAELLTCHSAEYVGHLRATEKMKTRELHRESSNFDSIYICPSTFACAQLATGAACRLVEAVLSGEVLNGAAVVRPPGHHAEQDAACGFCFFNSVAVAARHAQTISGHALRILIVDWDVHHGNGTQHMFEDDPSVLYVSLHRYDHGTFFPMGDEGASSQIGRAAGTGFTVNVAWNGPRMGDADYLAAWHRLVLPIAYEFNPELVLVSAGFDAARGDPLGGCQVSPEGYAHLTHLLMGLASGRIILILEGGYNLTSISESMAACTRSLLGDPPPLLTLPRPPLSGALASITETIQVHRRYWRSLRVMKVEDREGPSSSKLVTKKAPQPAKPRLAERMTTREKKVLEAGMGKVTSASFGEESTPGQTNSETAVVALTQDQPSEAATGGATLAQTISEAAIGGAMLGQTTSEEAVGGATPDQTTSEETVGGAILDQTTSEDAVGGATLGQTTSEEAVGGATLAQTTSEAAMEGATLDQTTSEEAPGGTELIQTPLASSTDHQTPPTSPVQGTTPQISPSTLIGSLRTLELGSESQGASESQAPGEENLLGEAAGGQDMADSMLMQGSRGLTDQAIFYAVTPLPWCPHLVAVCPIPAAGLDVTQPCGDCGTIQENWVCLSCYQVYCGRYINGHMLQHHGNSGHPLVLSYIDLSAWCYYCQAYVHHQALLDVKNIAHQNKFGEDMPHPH
FYI, pIC50 means -log10 of a concentration in mol per litre.

These solved cases illustrate the format of a correct answer.
CC(CCCCCC(=O)NO)n1cc(-c2ncnc3[nH]ccc23)cn1 (centres undefined) | 9.00
O=C(CCCCCCC(=O)Nc1ccc(NC(=O)CCCn2cc(-c3ncnc4[nH]ccc34)cn2)cc1)NO | 6.26
O=C(CCCCCn1cc(-c2ncnc3[nH]ccc23)cn1)NO | 8.54

We now examine a further compound.
Reported pIC50 for O=C(CCCCn1cc(-c2ncnc3[nH]ccc23)cn1)NO : what is it?
8.22

====

- Experiment: Thermodynamic aqueous solubility of the compound at pH 7.4 after 3 hrs by UV absorbance based assay
- Type: physicochemical
- Measurement setup: read-out: Therm_solubility
Endpoint label: solubility thermodynamic at 3 h (µg/mL)
Note: unit µg/mL is implicit; provide only the numeric part.

Field request: solubility thermodynamic at 3 h | item: O=C(CCCCCCn1cc(-c2ncnc3[nH]ccc23)cn1)NO
66.2

====

- Test system: Tyrosine-protein kinase JAK1 (Homo sapiens, UniProt P23458)
- Experiment: Inhibition of human JAK1 using poly[Glu:Tyr] as substrate in presence of [gamma-33P]-ATP
Endpoint label: pIC50
The read-out pIC50 is expressed as -log10 of concentration in moles per litre.

Any idea what pIC50 was measured for CC(CCCCCC(=O)NO)n1cc(-c2ncnc3[nH]ccc23)cn1 (stereo unspecified) ?
7.96
